molecular target: Sigma non-opioid intracellular receptor 1 (Cavia porcellus, UniProt Q60492); assay: Displacement of [3H](+)-pentazocine from sigma 1 receptor in guinea pig brain membrane
Sequence (Q60492 whole entry): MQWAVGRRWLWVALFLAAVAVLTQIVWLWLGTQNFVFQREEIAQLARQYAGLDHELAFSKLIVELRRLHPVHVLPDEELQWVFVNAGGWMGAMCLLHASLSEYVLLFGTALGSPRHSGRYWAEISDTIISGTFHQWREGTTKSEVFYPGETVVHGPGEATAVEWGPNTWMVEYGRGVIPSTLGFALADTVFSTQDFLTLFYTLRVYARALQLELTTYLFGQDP
Lab note: anything with Ki below 8 nM is marked 1.0; values at 8 nM or higher are marked 0.0.

Exercise: Is Ki strictly under 8 nM for the entry `C/C(=C\CN(C)C)c1ccc(-c2ccccc2)cc1` ?
Solution: 1.0

Exercise: Is Ki strictly under 8 nM for the entry CC(CCN(C)C)c1cccc2ccccc12 (stereo not given) ?
Solution: 0.0

Exercise: Is Ki strictly under 8 nM for the entry COc1ccc2cc(C(C)CCN(C)C)ccc2c1 (racemic) ?
Solution: 1.0

Exercise: Is Ki strictly under 8 nM for the entry `C/C(=C\CN(C)Cc1ccccc1)c1ccc(-c2ccccc2)cc1` ?
Solution: 1.0

Exercise: Is Ki strictly under 8 nM for the entry `C/C(=C\CN(C)C)c1ccc2cc(O)ccc2c1` ?
Solution: 0.0

Exercise: Is Ki strictly under 8 nM for the entry CC(CCN(C)C)c1ccc2cc(O)ccc2c1 (racemic) ?
Solution: 0.0

Exercise: Is Ki strictly under 8 nM for the entry CC(CCN(C)Cc1ccccc1)c1ccc(-c2ccccc2)cc1 (stereo not given) ?
Solution: 1.0

Exercise: Is Ki strictly under 8 nM for the entry `C/C(=C\CN(C)C)c1cccc2ccccc12` ?
Solution: 0.0

Exercise: Is Ki strictly under 8 nM for the entry CC(CCN(C)C)c1ccc2ccccc2c1 (stereo not given) ?
Solution: 1.0

Exercise: Is Ki strictly under 8 nM for the entry CC(CCN(C)C)c1ccc(-c2ccccc2)cc1 (stereo not given) ?
Solution: 1.0

Exercise: Is Ki strictly under 8 nM for the entry `COc1ccc2cc(/C(C)=C/CN(C)C)ccc2c1` ?
Solution: 0.0

Exercise: Is Ki strictly under 8 nM for the entry `C/C(=C\CN(C)C)c1ccc2ccccc2c1` ?
Solution: 0.0

Exercise: Is Ki strictly under 8 nM for the entry CN(C)CCC(C)(O)c1ccc2ccccc2c1 (racemic) ?
Solution: 0.0

Exercise: Is Ki strictly under 8 nM for the entry CC(CCN(C)Cc1ccccc1)c1ccc2ccccc2c1 (stereo not given) ?
Solution: 1.0

====

Give measured Ratio Ki for each item. Keep answers brief.
species on record: Cavia porcellus; assay: Selectivity for sigma 1 receptor over sigma 2 receptor in guinea pig brain membranes; type: cell membranes; conditions: Membrane

Exercise: Fill in the blank: the reported Ratio Ki of `C/C(=C\CN(C)Cc1ccccc1)c1ccc(-c2ccccc2)cc1` is ____.
Solution: 12

Exercise: Fill in the blank: the reported Ratio Ki of `COc1ccc2cc(/C(C)=C/CN(C)C)ccc2c1` is ____.
Solution: 46

Exercise: Fill in the blank: the reported Ratio Ki of `C/C(=C\CN(C)C)c1ccc(-c2ccccc2)cc1` is ____.
Solution: 75.7

Exercise: Fill in the blank: the reported Ratio Ki of `C/C(=C\CN(C)Cc1ccccc1)c1ccc2ccccc2c1` is ____.
Solution: 111

Exercise: Fill in the blank: the reported Ratio Ki of `C/C(=C\CN(C)C)c1ccc2ccccc2c1` is ____.
Solution: 7.5

Exercise: Fill in the blank: the reported Ratio Ki of CC(CCN(C)Cc1ccccc1)c1ccc(-c2ccccc2)cc1 (stereo not given) is ____.
Solution: 102

Exercise: Fill in the blank: the reported Ratio Ki of CC(CCN(C)C)c1cccc2ccccc12 (stereo not given) is ____.
Solution: 4.3

Exercise: Fill in the blank: the reported Ratio Ki of CC(CCN(C)C)c1ccc2ccccc2c1 (stereo not given) is ____.
Solution: 22.5

Exercise: Fill in the blank: the reported Ratio Ki of CN(C)CCC(C)(O)c1ccc2ccccc2c1 (racemic) is ____.
Solution: 6.8

Exercise: Fill in the blank: the reported Ratio Ki of CC(CCN(C)C)c1ccc(-c2ccccc2)cc1 (stereo not given) is ____.
Solution: 158

Exercise: Fill in the blank: the reported Ratio Ki of CC(CCN(C)C)c1ccc2cc(O)ccc2c1 (racemic) is ____.
Solution: 70

Exercise: Fill in the blank: the reported Ratio Ki of `C/C(=C\CN(C)C)c1cccc2ccccc12` is ____.
Solution: 6.87

Exercise: Fill in the blank: the reported Ratio Ki of CC(CCN(C)Cc1ccccc1)c1ccc2ccccc2c1 (stereo not given) is ____.
Solution: 25.7

Exercise: Fill in the blank: the reported Ratio Ki of `C/C(=C\CN(C)C)c1ccc2cc(O)ccc2c1` is ____.
Solution: 6.1

Exercise: Fill in the blank: the reported Ratio Ki of COc1ccc2cc(C(C)CCN(C)C)ccc2c1 (racemic) is ____.
Solution: 26.3

====

assay: Displacement of [3H]DTG from sigma 2 receptor in guinea pig brain membrane; assay type: cell membranes, Cavia porcellus
Give measured Ki for each item. Keep answers brief.
I only need the number, in µM, no unit after it.

Exercise: Fill in the blank: the reported Ki of `C/C(=C\CN(C)C)c1ccc2cc(O)ccc2c1` is ____.
Solution: 1.39

Exercise: Fill in the blank: the reported Ki of CN(C)CCC(C)(O)c1ccc2ccccc2c1 (racemic) is ____.
Solution: 0.171

Exercise: Fill in the blank: the reported Ki of `COc1ccc2cc(/C(C)=C/CN(C)C)ccc2c1` is ____.
Solution: 0.985

Exercise: Fill in the blank: the reported Ki of `C/C(=C\CN(C)Cc1ccccc1)c1ccc(-c2ccccc2)cc1` is ____.
Solution: 0.0757

Exercise: Fill in the blank: the reported Ki of CC(CCN(C)Cc1ccccc1)c1ccc2ccccc2c1 (stereo unspecified) is ____.
Solution: 0.139

Exercise: Fill in the blank: the reported Ki of CC(CCN(C)C)c1cccc2ccccc12 (stereo unspecified) is ____.
Solution: 0.205

====

assay: Displacement of [3H]DTG from sigma 2 receptor in guinea pig brain membrane; format: cell membranes, Cavia porcellus
Give measured pKi for each item. Keep answers brief.
For clarity, pKi is expressed as the negative log10 of concentration in mol/L.

Exercise: Fill in the blank: the reported pKi of COc1ccc2cc(C(C)CCN(C)C)ccc2c1 (racemic) is ____.
Solution: 7.22

Exercise: Fill in the blank: the reported pKi of `C/C(=C\CN(C)C)c1ccc(-c2ccccc2)cc1` is ____.
Solution: 6.97

Exercise: Fill in the blank: the reported pKi of `C/C(=C\CN(C)C)c1cccc2ccccc12` is ____.
Solution: 6.15

Exercise: Fill in the blank: the reported pKi of CC(CCN(C)C)c1ccc2ccccc2c1 (centres undefined) is ____.
Solution: 7.36

Exercise: Fill in the blank: the reported pKi of `C/C(=C\CN(C)C)c1ccc2ccccc2c1` is ____.
Solution: 6.83

Exercise: Fill in the blank: the reported pKi of CC(CCN(C)C)c1ccc2cc(O)ccc2c1 (racemic) is ____.
Solution: 5.88

Exercise: Fill in the blank: the reported pKi of CC(CCN(C)Cc1ccccc1)c1ccc(-c2ccccc2)cc1 (centres undefined) is ____.
Solution: 6.23

Exercise: Fill in the blank: the reported pKi of `C/C(=C\CN(C)Cc1ccccc1)c1ccc2ccccc2c1` is ____.
Solution: 6.06

Exercise: Fill in the blank: the reported pKi of CC(CCN(C)C)c1ccc(-c2ccccc2)cc1 (centres undefined) is ____.
Solution: 6.79

Where do the numbers come from? From ChEMBL document CHEMBL1144556.
